Subject Of Test: Receptor-binding domain (RBD) of the SARS-CoV-2 spike protein, WA01/2020 strain (SARS-CoV-2, WA01/2020 strain, UniProt P0DTC2 319-541)
Assay Name: dose-response ELISA on coated antigen
Readout: EC50 (nM)
Please state the figure in nM; there is no need to write the unit.

Take a look at these entries with their results.
• antibody 2706 (antibody, V domains shown) VH: QVQLVQSGAEVKKPGSSVKVSCKASGGTFSTYAISWVRQAPGQGLEWMGGIIPLFATANYAQNFQGRVTITADKSTSTAYMELSSLRSEDTAVYYCASVRLHLEELSLSHQGDYYYGLDVWGQGTTVTVSS VL: DIQMTQSPSSLSASVADRVTITCQASQDISHYLNWYQQKPGKAPQLLIYDASKLETGAPSRFSGSGSGTDFTFTISSLQPEDIATYYCQQYDHLPLTFGGGSKVEIK = 0.017
• antibody 2619 (antibody, V domains shown) VH: EVQLVESGGGLVQPGRSLRLSCAASGFTFDDYAMHWVRQAPGKGLEWVSGISWNSGSIGYADSVKGRFTLSRDNAKNSLFLQMDSLRAEDTALYYCAKDVSYRSGSYYRFWGGSGSWGQGTLVTVSS VL: DIQMTQSPSSLSASVGDRVTITCRASLSIRSYLNWYQQKPGKPPKLLIYAASSLQSGVPSRFSGSGSGTDFTLTISSLQPEDFATYYCQQSYSTPLTFGGGTKVEIK = 0.037
• antibody 1227 (antibody, V domains shown) VH: QMQLVQSGAEVKKTGSSVKVSCEASGYTFTNRYLHWVRQAPGQALEWMGWITPFQGNTNYAQKFQDRVTITRDMSMNTVYMELSSLRSEDTAKYYCASGGQYGAGSYYLEDWGQGTLVTVSS VL: EIVMTQSPATLSVSPGERATLSCRASQSVRSNLAWYRQKPGQAPRLLIYGASTRATGVPARFSGSGSGTEFTLTISSLQSEDFAVYYCQQYINWPPLTFGGGTRVEIK = 0.107

Now examine the next entry.
query: Would you kindly share the measured EC50 for antibody 2025 (antibody, V domains shown) VH: QVQLVQSGAEVKKPGASVKVSCKVSGYTLIELSMHWVRQAPGKGLEWMGGFDPEDVETIYAQKFQGRVTMTEDTSTDTAYMELSSLRSEDTAVYYCATAYAVQWRGMIGYWGQGTLVTVSS VL: QSALTQPASVSGSPGQSITISCTGTSSDVGSYNLVSWYQQHPGKAPKLMIYEVSKRPSGVSNRFSGSKSGNTASLTISGLQAEDEADYYCSSYAGSSTFSYVFGTGTKVTVL ?
result: 0.113
